Molecular target: Human mTOR (FLAG-TOR) (Homo sapiens, UniProt P42345)
Sequence (P42345 1360-2549 limits assumed): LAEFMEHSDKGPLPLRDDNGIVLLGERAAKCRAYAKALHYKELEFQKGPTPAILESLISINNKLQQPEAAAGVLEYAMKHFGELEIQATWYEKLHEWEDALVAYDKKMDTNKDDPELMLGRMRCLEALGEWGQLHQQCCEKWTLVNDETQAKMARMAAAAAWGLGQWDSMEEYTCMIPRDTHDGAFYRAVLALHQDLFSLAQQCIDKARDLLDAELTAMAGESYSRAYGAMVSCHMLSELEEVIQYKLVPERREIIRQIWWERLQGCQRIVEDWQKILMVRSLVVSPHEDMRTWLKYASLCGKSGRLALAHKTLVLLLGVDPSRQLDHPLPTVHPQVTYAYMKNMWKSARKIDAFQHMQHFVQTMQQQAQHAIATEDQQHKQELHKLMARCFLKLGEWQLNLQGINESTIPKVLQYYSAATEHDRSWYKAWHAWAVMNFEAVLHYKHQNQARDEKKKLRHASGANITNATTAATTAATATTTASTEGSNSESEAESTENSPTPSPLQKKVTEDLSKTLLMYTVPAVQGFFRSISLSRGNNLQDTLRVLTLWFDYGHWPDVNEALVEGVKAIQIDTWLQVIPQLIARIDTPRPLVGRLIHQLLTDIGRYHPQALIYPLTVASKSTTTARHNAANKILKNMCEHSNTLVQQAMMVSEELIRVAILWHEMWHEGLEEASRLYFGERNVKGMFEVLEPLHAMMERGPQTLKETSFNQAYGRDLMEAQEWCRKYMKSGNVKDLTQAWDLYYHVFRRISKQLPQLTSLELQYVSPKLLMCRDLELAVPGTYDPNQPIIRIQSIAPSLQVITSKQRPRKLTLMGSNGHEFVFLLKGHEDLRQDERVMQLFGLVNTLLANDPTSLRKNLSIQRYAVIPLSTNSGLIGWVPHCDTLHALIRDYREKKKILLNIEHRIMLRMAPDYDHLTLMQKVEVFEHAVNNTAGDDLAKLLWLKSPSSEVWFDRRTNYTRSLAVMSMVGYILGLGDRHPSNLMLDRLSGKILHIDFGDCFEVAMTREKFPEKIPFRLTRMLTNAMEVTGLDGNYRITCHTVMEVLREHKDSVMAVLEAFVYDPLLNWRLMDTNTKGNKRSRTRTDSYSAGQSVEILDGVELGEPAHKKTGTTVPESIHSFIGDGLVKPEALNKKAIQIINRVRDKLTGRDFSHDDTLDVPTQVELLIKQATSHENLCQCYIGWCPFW
Assay: mTOR kinase assay (DELFIA format, purified enzyme)
Assay type: biochemical
Details: read-out: IC50 mTOR
Catalogue of pIC50 values
# log scale: pIC50 equals minus log10 of the concentration in mol/L

>>> print(df.to_string())
                                   molecule  result
0  CNCCN(C)C(=O)c1ccc(NC(=O)Nc2ccc(-c3nc(N4CCOCC4)nc(N4C5CCCC4COC5)n3)cc2)cc1    9.17
1  O=C(Nc1ccncc1)Nc1ccc(-c2nc(N3CCOCC3)nc(N3C4CCCC3COC4)n2)cc1    9.17

What value of pIC50 has been reported for the following molecule? `COCCNC(=O)c1ccc(NC(=O)Nc2ccc(-c3nc(-c4cccs4)nc(N4CCOCC4)n3)cc2)cc1`
8.22

Can you look up the measured pIC50 of `CN(C)CCCNC(=O)c1ccc(NC(=O)Nc2ccc(-c3nc(N4CCOCC4)nc(N4C5CCC4COC5)n3)cc2)cc1` for me?
9.28
